protocol-details: Acute toxicity in ICR mouse assessed as death rate at 1250 to 2592 mg/kg, po measured after 7 days
Type: organism-based
condition-details: in vivo, dose 1250-2592 mg/kg, time 7 day, read-out: Activity
readout-type: mortality at 168 h (%)

INSERT INTO assay_data (smiles_code, readout_type, unit_text, readout_value) VALUES
  ('O=[N+]([O-])c1ccc(COc2ccc([N+](=O)[O-])c(Br)c2)o1', 'mortality at 168 h', '%', 0);

###

Listing: mortality at 168 h of selected compounds
protocol-details: Acute toxicity in ICR mouse assessed as death rate at 2160 mg/kg, po measured after 7 days
Format: organism-based
condition-details: in vivo, time 7 day, read-out: Activity
readout-type: mortality at 168 h

INSERT INTO results (smiles_code, readout_type, readout_value) VALUES
  ('O=C1CCCC(=O)C1C(=O)c1ccc(C(F)(F)F)cc1[N+](=O)[O-]', 'mortality at 168 h', '100%'),
  ('O=C(NCc1ccc(Br)nc1)c1ccc([N+](=O)[O-])o1', 'mortality at 168 h', '20%');
